Molecular target: Human serum albumin (HSA) (Homo sapiens)
Sequence (P02768 25-609): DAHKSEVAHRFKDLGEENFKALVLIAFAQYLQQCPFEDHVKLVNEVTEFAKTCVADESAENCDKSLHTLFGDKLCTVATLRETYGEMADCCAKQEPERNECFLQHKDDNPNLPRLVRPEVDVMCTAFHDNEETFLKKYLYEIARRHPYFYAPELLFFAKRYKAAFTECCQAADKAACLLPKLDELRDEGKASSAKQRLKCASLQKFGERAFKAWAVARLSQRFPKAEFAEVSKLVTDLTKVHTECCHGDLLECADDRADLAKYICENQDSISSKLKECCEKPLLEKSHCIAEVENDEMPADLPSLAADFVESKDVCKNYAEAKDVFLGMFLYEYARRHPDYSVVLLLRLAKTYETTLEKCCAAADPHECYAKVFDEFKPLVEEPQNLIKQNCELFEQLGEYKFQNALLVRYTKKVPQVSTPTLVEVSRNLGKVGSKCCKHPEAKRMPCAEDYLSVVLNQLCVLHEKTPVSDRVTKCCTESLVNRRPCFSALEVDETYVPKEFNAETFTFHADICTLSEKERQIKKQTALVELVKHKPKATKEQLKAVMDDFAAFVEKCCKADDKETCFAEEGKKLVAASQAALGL
Assay: intrinsic fluorescence quenching (Stern-Volmer, Klotz Ka), dansyl amino acid marker displacement, far UV-CD
Details: read-out: λex 275 nm / Ka [mol^-1.L] ± SD ^1
pKd: −log10 of the molar value.

{"Mol Smiles": "c1cnc(N2c3ccncc3Sc3ncccc32)nc1", "pKd": 4.72}
